Recorded measurements of K, one per entry
# testDetails: Stability of compound in 50 mM Tris-HCL buffer at pH 7.4 assessed as solvolysis constant (K) incubated for 72 hrs by LC-MS analysis
# Format: physicochemical
# conditionNotes: pH 7.4, 72 h

[[record]]
smilesinput = "C[N+](C)(Cc1cn(CCOCCOCCO[C@@H]2O[C@H](CO)[C@@H](O)[C@H](O)[C@H]2O)nn1)C[B-](F)(F)F"
datavalue = 0.005

[[record]]
smilesinput = "OC[C@H]1O[C@@H](OCCOCCOCC[N+]2(C[B-](F)(F)F)CCOCC2)[C@H](O)[C@@H](O)[C@@H]1O"
datavalue = 0.068

[[record]]
smilesinput = "CCCC[N+](CCCC)(CCOCCOCCO[C@@H]1O[C@H](CO)[C@@H](O)[C@H](O)[C@H]1O)C[B-](F)(F)F"
datavalue = 0.086

[[record]]
smilesinput = "OC[C@H]1O[C@@H](OCCOCCOCC[N+]2(C[B-](F)(F)F)CCCCC2)[C@H](O)[C@@H](O)[C@@H]1O"
datavalue = 0.146


API: the following record is the query input.
**Q:** Could you share which K value was measured for `C[N+](C)(Cc1cn([C@@H]2[C@@H](O)[C@H](O)[C@@H](CO)O[C@@H]2O)nn1)C[B-](F)(F)F` ?
**A:** 0.017

* * *

# testDetails: Stability of compound in 20 mM CH3COONH4 buffer at pH 5.8 assessed as half life incubated for 72 hrs by LC-MS analysis
# Type: physicochemical
# conditionNotes: 20 mM ammonium acetate (CH3COONH4) buffer
recordedMetric: half-life (h)
Give the number; h is assumed, so skip it.

[[record]]
smilesinput = "OC[C@H]1O[C@@H](OCCOCCOCC[N+]2(C[B-](F)(F)F)CCCCC2)[C@H](O)[C@@H](O)[C@@H]1O"
recordedmetric = "half-life"
datavalue = 8.82

[[record]]
smilesinput = "OC[C@H]1O[C@@H](OCCOCCOCC[N+]2(C[B-](F)(F)F)CCOCC2)[C@H](O)[C@@H](O)[C@@H]1O"
recordedmetric = "half-life"
datavalue = 32.7


API: the following record is the query input.
**Q:** Could you share which half-life value was measured for `CCCC[N+](CCCC)(CCOCCOCCO[C@@H]1O[C@H](CO)[C@@H](O)[C@H](O)[C@H]1O)C[B-](F)(F)F` ?
**A:** 22.8

* * *

# testDetails: Stability in mouse plasma measured after 1 hr by LC-HRMS analysis
# Type: ADME, cell-free
# conditionNotes: read-out: Stability
recordedMetric: remaining at 1 h (%)
Give the number; % is assumed, so skip it.

Example results:
[[record]]
smilesinput = "C[N+](C)(Cc1cn(CCOCCOCCO[C@@H]2O[C@H](CO)[C@@H](O)[C@H](O)[C@H]2O)nn1)C[B-](F)(F)F"
recordedmetric = "remaining at 1 h"
unitannotation = "%"
datavalue = 1.2

[[record]]
smilesinput = "OC[C@H]1O[C@@H](OCCOCCOCC[N+]2(C[B-](F)(F)F)CCCCC2)[C@H](O)[C@@H](O)[C@@H]1O"
recordedmetric = "remaining at 1 h"
unitannotation = "%"
datavalue = 14.1

[[record]]
smilesinput = "CCCC[N+](CCCC)(CCOCCOCCO[C@@H]1O[C@H](CO)[C@@H](O)[C@H](O)[C@H]1O)C[B-](F)(F)F"
recordedmetric = "remaining at 1 h"
unitannotation = "%"
datavalue = 8.89

[[record]]
smilesinput = "OC[C@H]1O[C@@H](OCCOCCOCC[N+]2(C[B-](F)(F)F)CCOCC2)[C@H](O)[C@@H](O)[C@@H]1O"
recordedmetric = "remaining at 1 h"
unitannotation = "%"
datavalue = 2.73


API: the following record is the query input.
**Q:** Could you share which remaining at 1 h value was measured for `C[N+](C)(Cc1cn([C@@H]2[C@@H](O)[C@H](O)[C@@H](CO)O[C@@H]2O)nn1)C[B-](F)(F)F` ?
**A:** 4.15
